Test system: Benz-I (protease specific for basic amino acid residue)
Assay: Substrate specificity of Benz-I with fluorescent substrates
Assay type: biochemical, Kluyveromyces lactis IFO 1903
Conditions: activity for Boc-Gln-Arg-Arg-MCA being 100; standard conditions
Peptide text beside a SMILES is read from it. * marks the point of attachment. AMC = Cc1cc(=O)oc2cc(N*)ccc12; Boc = CC(C)(C)OC(=O)*
MEASURED_ENDPOINT: Relative activity of Benz-I for substrate
Lab note: record the figure alone, no unit after it.

# get_value(readout='Relative activity of Benz-I for substrate', item= Cc1cc(=O)oc2cc(NC(=O)[C@H](CCCNC(=N)N)NC(=O)[C@H](CCCCN)NC(=O)CNC(=O)OC(C)(C)C)ccc12 [Boc--Gly--Lys--Arg--MCA] (Boc-Gly-Lys-Arg-{AMC}) ) 120

Any idea what Relative activity of Benz-I for substrate was measured for Cc1cc(=O)oc2cc(NC(=O)[C@H](CCCNC(=N)N)NC(=O)[C@H](CCCCN)NC(=O)[C@H](CC(C)C)NC(=O)OC(C)(C)C)ccc12 [Boc--Leu--Lys--Arg--MCA] (Boc-Leu-Lys-Arg-{AMC}) ? 123

Entry Cc1cc(=O)oc2cc(NC(=O)[C@H](CCCNC(=N)N)NC(=O)[C@@H](NC(=O)[C@H](CO)NC(=O)[C@H](CC(C)C)NC(=O)OC(C)(C)C)[C@@H](C)O)ccc12 [Boc--Leu--Ser--Thr--Arg--MCA] (Boc-LSTR-{AMC}) has what Relative activity of Benz-I for substrate? 127

# query: Relative activity of Benz-I for substrate of entry Cc1cc(=O)oc2cc(NC(=O)[C@H](CCCNC(=N)N)NC(=O)[C@H](CCCNC(=N)N)NC(=O)[C@H](CC(C)C)NC(=O)OC(C)(C)C)ccc12 [Boc--Leu--Arg--Arg--MCA] (Boc-Leu-Arg-Arg-{AMC}) 159

Given Cc1cc(=O)oc2cc(NC(=O)[C@H](CCCNC(=N)N)NC(=O)[C@@H]3CCCN3C(=O)CNC(=O)[C@H](C)NC(=O)OC(C)(C)C)ccc12 [Boc--Ala--Gly--Pro--Arg--MCA] (Boc-AGPR-{AMC}) , state its recorded Relative activity of Benz-I for substrate. 1.9

* * *

Test system: Benz-I (protease specific for basic amino acid residue)
Assay: Substrate specificity of Benz-I with fluorescent substrates
Format: biochemical, Kluyveromyces lactis IFO 1903
Conditions: activity for Boc-Gln-Arg-Arg-MCA being 100; standard conditions
Peptide text beside a SMILES is read from it. * marks the point of attachment. AMC = Cc1cc(=O)oc2cc(N*)ccc12; Boc = CC(C)(C)OC(=O)*; OBn = c1ccc(CO*)cc1
MEASURED_ENDPOINT: Relative activity of Benz-I for substrate
Just the number, please, no unit attached.

Can you share its Relative activity of Benz-I for substrate? I mean this compound: Cc1cc(=O)oc2cc(NC(=O)[C@H](CCCNC(=N)N)NC(=O)[C@H](CCCNC(=N)N)NC(=O)[C@H](CCC(N)=O)NC(=O)OC(C)(C)C)ccc12 [Boc--Gln--Arg--Arg--MCA, Boc-Gln-Arg-Arg-MCA] (Boc-Gln-Arg-Arg-{AMC}) 100

Query: Relative activity of Benz-I for substrate; subject: Cc1cc(=O)oc2cc(NC(=O)[C@H](CCCNC(=N)N)NC(=O)[C@@H]3CCCN3C(=O)[C@H](CC(=O)OCc3ccccc3)NC(=O)OC(C)(C)C)ccc12 [Boc--Asp(OBzl)--Pro--Arg--MCA] (Boc-Asp(OBn)-Pro-Arg-{AMC}) 12.3

Would you kindly share the measured Relative activity of Benz-I for substrate for Cc1cc(=O)oc2cc(NC(=O)[C@H](CCCNC(=N)N)NC(=O)[C@H](CCCNC(=N)N)NC(=O)CNC(=O)OC(C)(C)C)ccc12 [Boc--Gly--Arg--Arg--MCA] ? 19.8

* * *

Test system: Benz-I (protease specific for basic amino acid residue)
Test: Substrate specificity of Benz-I with fluorescent substrates
Format: biochemical, Kluyveromyces lactis IFO 1903
Conditions: activity for Boc-Gln-Arg-Arg-MCA being 100; standard conditions
Peptide text beside a SMILES is read from it. * marks the point of attachment. AMC = Cc1cc(=O)oc2cc(N*)ccc12; Boc = CC(C)(C)OC(=O)*
MEASURED_ENDPOINT: Relative activity of Benz-I for substrate
Answer with the value's number alone.

// fetch Benz-I (protease specific for basic amino acid residue) Relative activity of Benz-I for substrate for Cc1cc(=O)oc2cc(NC(=O)[C@H](CCCNC(=N)N)NC(=O)[C@@H](NC(=O)[C@H](CC(C)C)NC(=O)OC(C)(C)C)[C@@H](C)O)ccc12 [Boc--Leu--Thr--Arg--MCA] (Boc-Leu-Thr-Arg-{AMC}) 20.0

Find the measured Relative activity of Benz-I for substrate: item Cc1cc(=O)oc2cc(NC(=O)[C@H](CCCCN)NC(=O)[C@H](CCCCN)NC(=O)[C@H](CCC(=O)O)NC(=O)OC(C)(C)C)ccc12 [Boc--Glu--Lys--Lys--MCA] (Boc-Glu-Lys-Lys-{AMC}) , target or system Benz-I (protease specific for basic amino acid residue). 1.3

Give the reported Relative activity of Benz-I for substrate for Cc1cc(=O)oc2cc(NC(=O)[C@H](CCCNC(=N)N)NC(=O)[C@@H]3CCCN3C(=O)[C@@H](NC(=O)OC(C)(C)C)C(C)C)ccc12 [Boc--Val--Pro--Arg--MCA] (Boc-Val-Pro-Arg-{AMC}) (system: Benz-I (protease specific for basic amino acid residue)). 107
